# experimental_target: T1, 4H3655-AA
# T1 chain: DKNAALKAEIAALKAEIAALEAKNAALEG
# assay_protocol: two-hybrid library CCmax;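 further: natural log of median RNA to DNA barcode read ratio; higher means stronger binding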
# condition_summary: mean of both orientations
property: interaction score

> print(dat)
                                     binder  reported.measurement
1  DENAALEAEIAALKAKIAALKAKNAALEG [4H1135-AA]                  1.88
2  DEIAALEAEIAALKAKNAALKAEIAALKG [4H122-AA]                 -1.14
3  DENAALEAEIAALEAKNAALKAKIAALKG [4H1086-AA]                -0.935
4  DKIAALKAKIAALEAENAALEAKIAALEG [4H2837-AA]                -0.923
5  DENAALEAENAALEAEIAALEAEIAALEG [4H1153-AA]                 -0.01
6  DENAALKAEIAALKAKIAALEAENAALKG [4H1636-AA]                -0.763
7  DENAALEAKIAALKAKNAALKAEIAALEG [4H1401-AA]                 -1.48
